Test: Micro-Cup Burner Test (extinguishing concentration; Mass Ratio Calculation vs HALON 1211)
Settings: volume % in air required to extinguish the flame within an average time of 30 seconds or less; propane fuel
Method: The Micro-Cup Burner Test is a laboratory test which measures the extinguishing ability of an agent based on the quantity of agent required to extinguish a fire under the following test conditions. […] An extinguishing composition to be evaluated is introduced into the air stream upstream of the burner. […] After 90 seconds, a specific flow rate of composition is introduced, and the time required for the flame to be extinguished is recorded. […]
Use 4 vol % as the dividing line for Ext. Conc. (vol %), with the line itself on the condition met side and lower values as condition not met.

Assess whether reported Ext. Conc. (vol %) for FC(F)(F)CC(F)(F)F [Comparative Example C3, 1,1,1,3,3,3-hexafluoropropane, reference compound] sits at 4 vol % or higher. condition met

Please check the record O=C(C(F)(F)C(F)F)C(F)(C(F)(F)F)C(F)(F)F and state if its Ext. Conc. (vol %) is at or above 4 vol %. condition met

# check: Ext. Conc. (vol %) of FC(F)(F)C(F)(F)C(F)(F)F [Comparative Example C6, perfluoro-n-propane, reference compound] is greater than or equal to 4 vol % condition met

In plain terms: is recorded Ext. Conc. (vol %) at least 4 vol % for O=C(C(F)(F)C(F)(F)F)C(F)(C(F)(F)F)C(F)(F)F ? condition not met

Hi, just wondering whether FC(F)(Cl)Br [Comparative Example C1, bromochlorodifluoromethane, reference compound] shows Ext. Conc. (vol %) of 4 vol % or higher. condition not met

Reported Ext. Conc. (vol %) at or above 4 vol %? O=C(C(F)(F)C(F)(F)F)C(F)(F)C(F)(F)C(F)(F)F condition met

Is Ext. Conc. (vol %) at least 4 vol %? Consider CC(=O)C(F)(F)C(F)(F)C(F)(F)C(F)(F)F [Comparative Example C13, perfluorobutyl methyl ketone, reference compound] condition met

// provenance: patent US6630075B2
